Test: Cytotoxicity against mouse BV2 cells assessed as cell viability at 20 uM by MTT assay relative to LPS-treated cells
Format: cell-based, BV-2
Details: read-out: Activity
Below: a set of entries, each annotated with reported viability at 20 µM.
Give me the value, and tack the unit on after it.

Solved cases below.
MOLECULE	ASSAY_ENDPOINT	ENDPOINT_RESULT
C[C@@H]1O[C@@H](OC[C@H]2O[C@@H](Oc3c(-c4ccc(O)cc4)oc4cc(O)cc(O)c4c3=O)[C@H](O)[C@@H](O)[C@@H]2O)[C@H](O)[C@H](O)[C@H]1O [NICOTIFLOROSIDE]	viability at 20 µM	104%
O=c1c(O)c(-c2ccc(O)cc2)oc2cc(O[C@@H]3O[C@H](CO)[C@@H](O)[C@H](O)[C@H]3O)cc(O)c12	viability at 20 µM	107%
O=c1c(O)c(-c2ccc(O[C@@H]3O[C@H](CO)[C@@H](O)[C@H](O)[C@H]3O)c(O)c2)oc2cc(O[C@@H]3O[C@H](CO)[C@@H](O)[C@H](O)[C@H]3O)cc(O)c12	viability at 20 µM	105%
O=C(/C=C/c1ccc(O)cc1)O[C@@H]1[C@@H](O)[C@H](Oc2c(-c3ccc(O[C@@H]4O[C@H](CO)[C@@H](O)[C@H](O)[C@H]4O)cc3)oc3cc(O[C@@H]4O[C@H](CO)[C@@H](O)[C@H](O)[C@H]4O)cc(O)c3c2=O)O[C@H](CO)[C@H]1O [ALLIVICTOSIDE E]	viability at 20 µM	104%

Moving on to the next molecule.
Prompt line: Entry COc1cc(/C=C/C(=O)O[C@H]2[C@H](Oc3c(-c4ccc(O[C@@H]5O[C@H](CO)[C@@H](O)[C@H](O)[C@H]5O)cc4)oc4cc(O)cc(O)c4c3=O)O[C@H](CO)[C@@H](O)[C@@H]2O)ccc1O [ALLIVICTOSIDE B] : reported viability at 20 µM = ?
Response line: 107%

From: ChEMBL document CHEMBL2203001
